# testedOn: T1, recombinant human RANTES (huRANTES, Peprotech) (human, UniProt P13501 24-91)
# T1 sequence: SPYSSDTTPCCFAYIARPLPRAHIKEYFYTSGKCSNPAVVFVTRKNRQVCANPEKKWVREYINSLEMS
# assayProtocol: cell-based or functional assay
assayMetric: Chemotaxis IC50 (nM), 1 nM huRANTES; L1.2-hCCR5 cells; IgG1 format
The figure you give is taken to be in nM; do not add the unit.

These recorded examples may help you get a feel for the data.
H6 antibody, IgG1 format (antibody, V domains shown) VH: QVQLVQSGAEVKRPGASVKVSCKVSGNTLSKQSMHWVRQAPGKGFEWMGSSNPEDDETLYAKKFQGRVTMTEDTSTDTAYLELSSLRSEDTAVYYCATDSQGFYYYYGMDVWGQGTLVTVSS VL: QSVLTQPPSVSGAPGQRVTISCTGSSSNIGADYDVHWYQQLPGTVPKLLIYDNINRPSGVPDRFSGSKSGTSASLAITGLQAEDEADYYCQSYDSSLSGVLFGGGTKVTVL	8.7
G2 antibody, IgG1 format (antibody, V domains shown) VH: QVQLVQSGAEVKKPGASVKVSCRASGYALTELSIHWVRQAPGKGLEWMGGFDPEDGETIYAQNFQGRVIMTEDTSTDTAYMELSSLKSEDTAVYYCATDLTGSRDSWGQGTLVTVSS VL: QSVLTQPASVSGSPGQSITISCTGSRSDIGYYNYVSWYQQHPGKVPKLIIYDVTERPSGVSDRFSGSKSANTASLTISGLQAEDEADYYCSSFSSGDTFVVFGGGTKLTVL	18.4

Now consider the entry below.
Dear colleague, please send me the reported Chemotaxis IC50 (nM), 1 nM huRANTES; L1.2-hCCR5 cells; IgG1 format for E6 antibody, IgG1 format (antibody, V domains shown) VH: QVQLVQSGAEVEKPGASVKVSCRVSGYPLTEIAIHWVRQAPGKGLEWMGSFEPEDAEAIYAQRFQGRVTMTEETSANTAYMELSSLRSEDTAVYFCATDPYYASSGSNYMEVWGRGTLVTVSS VL: NFMLTQPHSVSESPGKTVTISCTGSGGSISSNYVQWYRQRPGSAPSTVIYEDDQRPSGVPDRISGSIDSSSNSASLTISGLTTEDEADYYCHSYDGNNRWVFGGGTKLTVL when you can.
14
